Values compiled from ChEMBL document CHEMBL1201862.

# Tested on: 786-0
# experimental protocol: NCI tumour cell line growth inhibition, 48 h
Activity calls are given as the source filed them. Rule as the data show it: active = GI50 up to about 1.1 µM and inactive = higher.
# output must be one of active, inactive

Here are 5 molecules together with their reported answers.
molecule: O=[N+]([O-])c1cc2c(cc1/C=N/n1c(CO)nc3ccccc31)OCO2
assigned class: inactive
//
molecule: C/C(=N\NC(=S)N1CCN(c2ccccn2)CC1)c1nccs1
assigned class: active
//
molecule: CC(SC(=S)N1CCCCC1)C(=O)Nc1nnc(-c2ccc(Cl)cc2)o1 (stereo unspecified)
assigned class: inactive
//
molecule: COc1ccc2cc(CNCCOCCOCCNCc3ccc4cc(OC)ccc4c3)ccc2c1
assigned class: active
//
molecule: O=C1CCNC(=O)NC1
assigned class: inactive

Now examine the next entry.
[Q] Write down the call the test reported for this molecule. Item: CCOC(=O)c1cc(C(=O)O)c(=O)n2c1[nH]c1ccccc12
[A] inactive

----------
# Test system: DU-145
# experimental protocol: NCI tumour cell line growth inhibition, 48 h
Activity calls are given as the source filed them. Rule as the data show it: active = GI50 up to about 1.1 µM and inactive = higher.
# output must be one of active, inactive

molecule: CC(=O)N(CCc1ccccc1)C(C)(C#N)c1ccccc1 (configuration not stated)
assigned class: inactive

molecule: NS(=O)(=O)c1nnc(NC(=O)/C=C/C(=O)O)s1
assigned class: inactive

[Q] Write down the call the test reported for this molecule. Item: Cc1ccc(/N=N/N(C)C(C)C(O)Cc2ccccc2)cc1 (configuration not stated)
[A] inactive

[Q] Query CCCCCc1cc2cc3c(c(O)c2c(=O)[nH]1)C1(CCC3)C(=O)c2c(O)c3c(c(O)c2C1=O)C(=O)C(OC)=CC3=O (configuration not stated) next
[A] active

[Q] Query CN(/N=C/c1ccc(Cl)cc1)C1=NCCCCN1 next
[A] inactive

[Q] Query O=C(Nc1ccccc1F)c1cc2ccc(O)cc2o/c1=N\c1cccc(F)c1 next
[A] inactive

[Q] Query CC(=O)OC1CC2CC(=O)CC1N2C (configuration not stated) next
[A] inactive

----------
# Tested on: NCI-H23
# experimental protocol: NCI tumour cell line growth inhibition, 48 h
Active and inactive are the calls of the source. Cut-off read from the data, not from the text of the source: active = GI50 up to about 1.1 µM and inactive = higher.
Reported GI50 values for a set of molecules

Worked examples, 3 molecules total:
molecule: CC(=O)N(CCc1ccccc1)C(C)(C#N)c1ccccc1 (stereo unspecified)
target or test system: NCI-H23
result: > 100 µM (inactive)
--
molecule: CC/C(Cl)=N\OC(=O)Nc1ccc(OC)cc1
target or test system: NCI-H23
result: 15.4 µM (inactive)
--
molecule: CCCCCCCCCCCCCCCCCCN(C)CC(COP(=O)([O-])OCC[N+](C)(C)C)OC (stereo unspecified)
target or test system: NCI-H23
result: 20.2 µM (inactive)

[Q] Need GI50 of O=[N+]([O-])c1cc2c(cc1/C=N/n1c(CO)nc3ccccc31)OCO2 , thanks.
[A] > 100 µM (inactive)

[Q] Query Nc1nnc2oc3ccc4ccccc4c3cc1-2 next
[A] 42.8 µM (inactive)

[Q] Query CCCCOc1ccc2c(c1)CC[C@@H]1[C@@H]2CC[C@]2(C)C(=O)N(CCCC)C(=O)C[C@@H]12 next
[A] > 100 µM (inactive)

----------
# System: NCI/ADR-RES
# experimental protocol: NCI tumour cell line growth inhibition, 48 h
Activity calls are given as the source filed them. Cut-off read from the data, not from the text of the source: active = GI50 up to about 1.1 µM and inactive = higher.
Reported GI50 values for a set of compounds

Worked examples, 4 compounds total:
compound: CCOC(=O)c1ccc(Nc2nc3ccc(C(F)(F)F)cc3nc2C(=O)OCC)cc1
result: > 100 µM (inactive)

compound: NS(=O)(=O)c1nnc(NC(=O)/C=C/C(=O)O)s1
result: > 100 µM (inactive)

compound: Cc1ccc([N+](=O)[O-])cc1NC1=NCCO1
result: > 100 µM (inactive)

compound: O=C(O)C(Cc1c[nH]c2ccccc12)C(=O)NO (centres undefined)
result: > 100 µM (inactive)

Now for the compound whose GI50 we want.
[Q] Need GI50 of O=c1c2cc([N+](=O)[O-])cnc2sn1-c1ccc([N+](=O)[O-])cc1 , thanks.
[A] 28.9 µM (inactive)

----------
Reported GI50 values for a set of compounds
# Tested on: OVCAR-3
# experimental protocol: NCI tumour cell line growth inhibition, 48 h
Active and inactive are the calls of the source. Rule as the data show it: active = GI50 up to about 1.1 µM and inactive = higher.

compound: CC(C)=CCC[C@@H](C)C1=C(O)C(=O)C(C)=C(N)C1=O
metric name: GI50
result: 27.9 µM (inactive)
--
compound: O=C(/C=C/c1cccs1)c1ccccc1Cl
metric name: GI50
result: 14.1 µM (inactive)

[Q] Need GI50 of COc1cc(S(=O)(=O)Nc2ccc(-c3csc(N4C(=O)CSC4c4cccs4)n3)cc2)ccc1Cl (stereo unspecified) , thanks.
[A] 51.5 µM (inactive)

[Q] Query O=C(NCc1cccs1)OC1CC2CCC1C2 (stereo unspecified) next
[A] > 100 µM (inactive)

[Q] Query S=C1NCCN1 next
[A] > 100 µM (inactive)

[Q] Query CC1=C2C(=O)OCC23C=COC3(C)O1 (stereo unspecified) next
[A] 33.4 µM (inactive)

[Q] Query CN(C)CCNC(=O)c1cccc(CO)c1[N+](=O)[O-] next
[A] > 100 µM (inactive)

[Q] Query CC1(C)CC(=O)C(CC2C(=O)c3ccccc3C2=O)C(=O)C1C(=O)C(=O)Nc1cccc2ccc(O)cc12 (stereo unspecified) next
[A] 48.9 µM (inactive)

[Q] Query CCOC(=O)Nc1c(C#N)[n+]([O-])c2cc(Cl)c(Cl)cc2[n+]1[O-] next
[A] 20.1 µM (inactive)

[Q] Query Cn1c2ccc(F)cc2c2ccc3c(c21)C(=O)C=CC3=O next
[A] 7.21 µM (inactive)

[Q] Query CO/N=C(/C)c1cccc(Nc2nc3ccccc3c3[nH]c4ccccc4c23)c1 next
[A] 5.7 µM (inactive)

----------
# System: HOP-62
# experimental protocol: NCI tumour cell line growth inhibition, 48 h
Active and inactive are the calls of the source. No stated cut-off is given here; in the data, active = GI50 up to about 1.1 µM and inactive = higher.
Reported GI50 values for a set of compounds

Worked examples, 4 compounds total:
compound: CC(C)(C)C(=O)Oc1ccc(/C=C/C(=O)c2ccc(OC(=O)C(C)(C)C)cc2)cc1
GI50: 82.2 µM (inactive)
--
compound: CCCCCC(=O)Nc1[nH]cnc1C(N)=O
GI50: > 100 µM (inactive)
--
compound: CCO[C@@H]1OC(=O)[C@](C)(C(C)=O)[C@@H]1C
GI50: 43.2 µM (inactive)
--
compound: Cc1ccc(S(=O)(=O)N/N=C2/CCC3(O)CC2(C)CCC2[C@H]3CC2(C)C)cc1 (stereo not given in full)
GI50: 43 µM (inactive)

[Q] Need GI50 of O=C1Nc2ccccc2/C1=C\c1c(Cl)n(-c2ccccc2)c2ccccc12 , thanks.
[A] 4.68 µM (inactive)

----------
# System: SF-295
# experimental protocol: NCI tumour cell line growth inhibition, 48 h
Active and inactive are the calls of the source. Cut-off read from the data, not from the text of the source: active = GI50 up to about 1.1 µM and inactive = higher.
metric name: GI50

Worked examples, 10 compounds total:
compound: CC(C)(C)c1ccc(-c2nnc(SCc3ccc(Cl)cc3)n2-c2cccc(C(F)(F)F)c2)cc1
target or test system: SF-295
metric name: GI50
result: 8.43 µM (inactive)

compound: O=C(N/N=C/C=C/c1ccc([N+](=O)[O-])o1)c1ccc(C(=O)N/N=C/C=C/c2ccc([N+](=O)[O-])o2)cc1
target or test system: SF-295
metric name: GI50
result: > 85.5 µM (inactive)

compound: Cc1cc2c3c(c1)CCCN3CCC2
target or test system: SF-295
metric name: GI50
result: > 10 µM (inactive)

compound: CC(NC(=O)c1ccccc1)C(=O)N(Cc1ccccc1)Cc1ccccc1 (stereo unspecified)
target or test system: SF-295
metric name: GI50
result: 27.4 µM (inactive)

compound: O=C1Nc2ccccc2/C1=C\c1c(Cl)n(-c2ccccc2)c2ccccc12
target or test system: SF-295
metric name: GI50
result: 3.18 µM (inactive)

compound: CCOC(=O)c1cc2cc(CSc3ccccc3)ccc2oc1=O
target or test system: SF-295
metric name: GI50
result: 43.4 µM (inactive)

compound: O=C(/C=C1\Nc2ncccc2N=C1CC(=O)c1ccccc1)c1ccccc1
target or test system: SF-295
metric name: GI50
result: 4.44 µM (inactive)

compound: COc1ccc(NCc2cc(OC)cc(OC)c2)cc1
target or test system: SF-295
metric name: GI50
result: 20.8 µM (inactive)

compound: CC(C)c1cccc(=O)c(O)c1
target or test system: SF-295
metric name: GI50
result: 3.39 µM (inactive)

compound: CCOC(=O)c1cc(C(=O)O)c(=O)n2c1[nH]c1ccccc12
target or test system: SF-295
metric name: GI50
result: > 100 µM (inactive)

[Q] Lab note: need GI50 with SF-295 for entry CCOC(=O)/C(C#N)=C/c1ccc(CO)o1 , please look it up.
[A] > 100 µM (inactive)

[Q] Query CC(C)(C)N(Cc1ccoc1)C(=O)/C=C\[S+]([O-])c1ccccc1 (stereo unspecified) next
[A] 29.9 µM (inactive)

[Q] Query COC(=O)C1(NC(=O)C(N)CC(=O)O)C(C)C1C (stereo unspecified) next
[A] > 100 µM (inactive)
